From: the supplement of paper PMC10037445

- System: RAW-Dual
- protocol-text: NF-kB SEAP reporter activity, fold change vs agonist alone; cytotoxicity flag (confluency mask): not cytotoxic; higher = enhanced NF-kB activity
- protocol-conditions: agonist: LPS (TLR4) 0.1 ug/mL
Whole data set: some 2,900 compounds, median “NF-kB SEAP reporter activity, fold change vs agonist alone” near 0.99, cut for the highest 2% near 2.6. The sample as a whole holds a higher share of the highest values than the screen did.
Threshold check on NF-kB SEAP reporter activity: at or above 2 gives Satisfied, strictly below gives Not satisfied.

As a guide, the following entries are already answered.
compound | class-assignment
C=CC1(C)CC(OC(=O)CSCCN(CC)CC)C2(C)C(C)CCC3(CCC(=O)C32)C(C)C1O (stereo not given) (library stock concentration (final ~1000-fold dilution): 10 mM) | Not satisfied
CN(C)CCOc1ccc(-c2nc(-c3ccncc3)c(-c3ccc4c(c3)CC/C4=N\O)[nH]2)cc1 (library stock concentration (final ~1000-fold dilution): 10 mM) | Satisfied
OCCn1cc(-c2ccc3c(c2)CC/C3=N\O)c(-c2ccncc2)n1 (library stock concentration (final ~1000-fold dilution): 10 mM) | Satisfied

Lab note: next compound to report on.
[in] Hello, I need to know if COc1ccc(CNCc2cccc3ccccc23)cc1.Cl (library stock concentration (final ~1000-fold dilution): 10 mM) has measured NF-kB SEAP reporter activity not below 2. Thanks!
[out] Not satisfied

====

- Tested on: RAW-Dual
- protocol-text: NF-kB SEAP reporter activity, fold change vs agonist alone; higher = enhanced NF-kB activity
- protocol-conditions: library stock concentration (final ~1000-fold dilution): 10 mM; cytotoxicity flag (confluency mask): not cytotoxic; agonist: MPLA (TLR4) […]
Whole data set: some 2,900 compounds, median “NF-kB SEAP reporter activity, fold change vs agonist alone” near 0.99, cut for the highest 2% near 2.6. What follows is part of a selection rich in the highest values, with near analogues and random picks from the rest.
readout-name: NF-kB SEAP reporter activity
Give a plain numeric answer without units written out.

Known NF-kB SEAP reporter activity results, listed for orientation:
compound | target-desc | NF-kB SEAP reporter activity
COc1cc(N2CCC(N(C)C)CC2)ccc1Nc1ncc(Cl)c(Nc2ccccc2P(C)(C)=O)n1 | RAW-Dual | 2.05
Cn1c(=O)cc(C(=O)Nc2ccc3c(c2)OCCO3)c2ccccc21 | RAW-Dual | 0.999
Cc1c(C(=O)Nc2ccc(N3CC(C)OC(C)C3)nc2)cccc1-c1ccc(OC(F)(F)F)cc1 (stereo not given) | RAW-Dual | 0.657
COc1ccc(C2OCC3C(c4cc(OC)c(OC)c(OC)c4)OCC23)cc1OC (stereo not given) | RAW-Dual | 1.03

Moving on to the next compound.
[in] # query: NF-kB SEAP reporter activity of entry Cc1c(CN2CCC(Nc3ncnc4sc(CC(F)(F)F)cc34)CC2)ccc2[nH]c(C#N)cc12
[out] 0.915

====

- System: RAW-Dual
- protocol-text: NF-kB SEAP reporter activity, fold change vs agonist alone; cytotoxicity flag (confluency mask): not cytotoxic; higher = enhanced NF-kB activity
- protocol-conditions: agonist: Pam3CSK4 (TLR2/1) 0.1 ug/mL
In all, about 2,900 compounds were measured (“NF-kB SEAP reporter activity, fold change vs agonist alone”: median about 0.99, highest 2% from about 2.6 on). Shown is part of a subset that was picked to be rich in the highest values.
Reported NF-kB SEAP reporter activity values are given for each entry in this list.
Give a plain numeric answer without units written out.

Known NF-kB SEAP reporter activity results, listed for orientation:
compound | target-desc | readout-name | result
O=C1C2C3CCC(C3)C2C(=O)N1CC1CCCCC1CN1CCN(c2nsc3ccccc23)CC1 (stereo unspecified) (library stock concentration (final ~1000-fold dilution): 10 mM) | RAW-Dual | NF-kB SEAP reporter activity | 1.07
NC1(C(=O)NC(CCO)c2ccc(Cl)cc2)CCN(c2ncnc3[nH]ccc23)CC1 (stereo unspecified) (library stock concentration (final ~1000-fold dilution): 10 mM) | RAW-Dual | NF-kB SEAP reporter activity | 0.723
O=C(Nc1ccc(O)cc1)c1ccccc1O (library stock concentration (final ~1000-fold dilution): 10 mM) | RAW-Dual | NF-kB SEAP reporter activity | 1.04
C=CC(=O)N1CCN(CCCn2c(=O)c(-c3c(Cl)c(OC)cc(OC)c3Cl)cc3cnc(NC)nc32)CC1 (library stock concentration (final ~1000-fold dilution): 10 mM) | RAW-Dual | NF-kB SEAP reporter activity | 1.15
C=CC(=O)NC1CCOCC1Nc1ncc2cc(-c3c(Cl)c(OC)cc(OC)c3Cl)ccc2n1 (stereo unspecified) (library stock concentration (final ~1000-fold dilution): 10 mM) | RAW-Dual | NF-kB SEAP reporter activity | 0.478

[in] # query: NF-kB SEAP reporter activity of entry C=CC(=O)Nc1cccc(C)c1Nc1ncc2cc(-c3c(Cl)c(OC)cc(OC)c3Cl)ccc2n1 (library stock concentration (final ~1000-fold dilution): 2 mM)
[out] 0.89

[in] # query: NF-kB SEAP reporter activity of entry CC1(C)SC2CC(=O)N2C1C(=O)OCOC(=O)C1N2C(=O)C(NC(=O)C(N)c3ccccc3)C2S(=O)(=O)C1(C)C.Cc1ccc(S(=O)(=O)O)cc1 (stereo unspecified) (library stock concentration (final ~1000-fold dilution): 10 mM)
[out] 0.873

[in] # query: NF-kB SEAP reporter activity of entry CCOC(=O)C=P(c1ccccc1)(c1ccccc1)c1ccccc1 (library stock concentration (final ~1000-fold dilution): 10 mM)
[out] 0.912

[in] # query: NF-kB SEAP reporter activity of entry Nc1ccccc1NC(=O)c1cnccn1 (library stock concentration (final ~1000-fold dilution): 10 mM)
[out] 0.532

[in] # query: NF-kB SEAP reporter activity of entry O=C(C=Cn1cnc(-c2cc(C(F)(F)F)cc(C(F)(F)F)c2)n1)NNc1cnccn1 (library stock concentration (final ~1000-fold dilution): 10 mM)
[out] 0.428

[in] # query: NF-kB SEAP reporter activity of entry CC1(C)OCC(COC(=O)CCc2ccc(OCC(O)CNCCNC(=O)N3CCOCC3)cc2)O1.Cl (stereo unspecified) (library stock concentration (final ~1000-fold dilution): 10 mM)
[out] 0.926
